system: CEM cells HIV-1 protection, formazan growth assay; assay: NCI AIDS Antiviral Assay; conditions: measured here: growth of uninfected CEM cells
OBSERVABLE: IC50

Query block: Note down IC50 recorded for O=C(CNc1ccccc1[N+](=O)[O-])Nn1cnc2ccc(S(=O)(=O)Nc3ccccc3[N+](=O)[O-])cc2c1=O
Result block: > 200 µM

Query block: Read off the recorded IC50 for CCN(CC)CCCCC1CCN(CC(=O)N2c3ccccc3NC(=O)c3ccccc32)CC1
Result block: 158 µM

Query block: Name the recorded IC50 of the compound listed here: CN(Cc1c2ccccc2cc2ccccc12)S(=O)(=O)c1ccc(-c2c3nc(c(-c4ccc(S(=O)(=O)N(C)Cc5c6ccccc6cc6ccccc56)cc4)c4ccc([nH]4)c(-c4ccc(S(=O)(=O)N(C)Cc5c6ccccc6cc6ccccc56)cc4)c4nc(c(-c5ccc(S(=O)(=O)N(C)Cc6c7ccccc7cc7ccccc67)cc5)c5ccc2[nH]5)C=C4)C=C3)cc1
Result block: > 100 µM

Query block: Query IC50 for Clc1ccc(-c2cc3nc4ccccc4nc3o2)cc1
Result block: > 100 µM

Query block: State, in one line, measured IC50 of COC(=O)C[CH](C(=O)OC)[Ge]([CH3])([CH3])[S]c1ccccc1 (stereo not given)
Result block: 18.2 µM

Query block: State its IC50 for this compound: CCCCCCNC(=O)CCN(C(=O)O)S(=O)(=O)c1ccc(NC(=O)c2ccccc2)cc1
Result block: > 380 µM

Query block: Give the measured IC50 for O=c1[nH]c(=O)n(C2OC(CO)C(O)C2O)cc1Oc1ccccc1 (stereo not given)
Result block: > 200 µM

Query block: Give a short answer stating reported IC50 for COP(=O)(O)C(N)Cc1c[nH]c2ccccc12 (stereo not given) .
Result block: > 200 µM

Query block: Please report IC50 for the following compound: [O-][n+]1onc2c1/C(=N/O)CCC2
Result block: > 200 µM

Query block: Read the entry O=C1CCCCC/C1=C\c1ccc(Cl)cc1 and write its reported IC50.
Result block: 27.5 µM

Query block: Recall and state the measured IC50 for CCOC(=O)c1ccc(N=[N+]([O-])c2ccc(C(=O)OCC)cc2)cc1 .
Result block: > 100 µM

Query block: Given the compound C=CP(=S)(c1ccccc1)c1ccccc1 , write its reported IC50.
Result block: > 56.2 µM

Query block: Please list IC50 recorded for the compound COc1ccc(C2(OC)Oc3cc(OC)ccc3C(=O)C2(O)O)cc1 (stereo not given)
Result block: 10.7 µM

Query block: Tell me IC50 reported for CCOC(=O)c1[nH]n(-c2ccccc2)c(=O)c1/C=N/C(=S)Nc1ccccc1OC
Result block: 93.3 µM

Query block: Check the records and state IC50 for Cc1nc(C)c(N2CCN(C(=O)O)CC2)c(=O)[nH]1
Result block: > 200 µM

Query block: Provide only the value of recorded IC50 for O=c1ccn(C2OC(CO)CC2F)c(=O)[nH]1 (stereo not given)
Result block: > 676 µM

Query block: State its IC50: CS(=O)(=O)OCC1CN(S(C)(=O)=O)c2cc(O)ccc21 (stereo not given)
Result block: 1.51 µM

Query block: Recall and state the measured IC50 for CC(=O)Oc1cc(OC(C)=O)c2c(C)cc(=O)oc2c1 .
Result block: 148 µM

Query block: Item C=CCCCCOC1C=CC(O)C(CO)O1 (stereo not given) : provide IC50
Result block: > 200 µM

Query block: Look up and report measured IC50 for this entry: CC(=O)OCc1cc(OC(C)=O)cnc1COC(C)=O
Result block: > 468 µM

* * *

tested on: CEM cells HIV-1 protection, formazan growth assay; test: NCI AIDS Antiviral Assay; settings: measured here: growth of uninfected CEM cells
OBSERVABLE: pIC50
Keep in mind that pIC50 stands for -log10 of concentration in molar terms.

Query block: Given the compound CC(=O)c1cc(I)c(O)c2ncccc12 , write its reported pIC50.
Result block: 5.84

Query block: Identify measured pIC50 associated with NC(=O)NC1=NC(Cc2ccccc2)C(=O)N1Cc1ccccc1 (configuration not stated)
Result block: 3.74

Query block: Give the reported pIC50 for this compound. CCOC(=O)c1c(SC(=O)/C=C/c2ccccc2)n(-c2ccccc2)c(=S)n(-c2ccccc2)c1=O
Result block: 4.10

Query block: Hello, please tell me recorded pIC50 for this one: CCC(C)C(CC)(C(=O)O)C(=O)O (configuration not stated)
Result block: 3.42

Query block: State its pIC50 for this compound: CC(=O)[C@H]1[C@@H](OCc2ccccc2)O[N+]([O-])=C(C)[C@@H]1c1ccccc1
Result block: 4.05

Query block: Provide only the value of recorded pIC50 for CCCCc1ccc(-n2sc3ncc([N+](=O)[O-])cc3c2=O)cc1
Result block: 5.00

Query block: Look up pIC50 of Cc1c(-c2ccccc2)[nH]n(C2=NCCN2)c1=O and report it.
Result block: 3.92

Query block: Name the recorded pIC50 of the compound listed here: CCC[CH2][Sn]1([CH2]CCC)[O]C(=O)c2cc(C)ccc2[O]1
Result block: 5.51

Query block: Provide pIC50 value for the following compound: CC(/C=N\NC(=S)N1CCCCC1)=N/NC(=S)N1CCCCC1
Result block: 5.75

Query block: Respond only with pIC50 recorded for Clc1cc2nc(C3CCCCO3)[nH]c2cc1Cl (configuration not stated)
Result block: 4.99

Query block: State, in one line, measured pIC50 of COc1ccc2nc3cc([N+](=O)[O-])ccc3c(Nc3ccc(S(=O)(=O)NC(C)=O)cc3)c2c1
Result block: 4.12

Query block: Give the reported pIC50 for this compound. NC1=NS(=O)(=O)Nc2nc(-c3ccc([N+](=O)[O-])o3)[nH]c21
Result block: 5.00

Query block: Using the record for COc1cc(OC)c(C2c3cc4c(cc3OC(N3CCOCC3)C2C)OCO4)c(OC)c1 (configuration not stated) , state its measured pIC50.
Result block: 4.95

Query block: Give a short answer stating reported pIC50 for CCCCC1Sc2cc(OC)cc([N+](=O)[O-])c2NC1=O (configuration not stated) .
Result block: 4.21

Query block: For the compound NC(=S)C(=S)N=Cc1c(N)[nH]n(-c2ccccc2)c1=O , give its reported pIC50.
Result block: 4.15

Query block: Return pIC50 (reported value) for this compound: O=c1c(C=Nc2ccc([N+](=O)[O-])cc2)c(O)n(-c2ccccc2)c(=O)n1-c1ccccc1
Result block: 4.67

Query block: Consider the compound COc1cc(OC)c2c(O)c3c(cc2c1)CC(C)(C)CC3=O and give its recorded pIC50.
Result block: 5.86

Query block: For the compound Cc1cc(C)nc(NS(=O)(=O)c2ccc(NC(=O)c3ccc4nc5ccccc5c(Nc5ccc(S(N)(=O)=O)cc5)c4c3)cc2)n1 , give its reported pIC50.
Result block: 4.40

Query block: For the compound O=C1CC(=O)N(c2ccccc2)N1/C(=C/c1ccccc1)c1ccccc1 , report pIC50.
Result block: 5.03

Query block: Please look at this compound and report its pIC50: CC(c1ccccc1)N1OC1(c1ccccc1)c1ccccc1 (configuration not stated)
Result block: 4.84

Query block: Please look at this compound and report its pIC50: CC(C)(CC#N)c1cc(CC(C)(C)c2cc(CC(C)(C)c3cc(C(C)(C)C4(C)OCCO4)no3)no2)no1
Result block: 4.22

Query block: For CC(C(=O)N1C(=O)N(C(=O)[C@H](C)C(O)c2ccccc2)[C@H](c2ccccc2)[C@H]1c1ccccc1)[C@@H](O)c1ccccc1 (some centres not stated) , write its pIC50.
Result block: 4.55

Query block: Output measured pIC50 for this item: C[C@H]1COC2=C1C(=O)C(=O)c1c2ccc2c1CCCC2(C)C
Result block: 5.05

Query block: // fetch pIC50 given entry COC(=O)/C(=N\NC(N)=O)C(C(=O)C(=O)Nc1ccccc1OC)c1nc2ccc([N+](=O)[O-])cc2[nH]c1=O (configuration not stated)
Result block: 3.64

Query block: Answer with the recorded pIC50 for the compound listed here: COC(=O)CC(=O)C=P(c1ccccc1)(c1ccccc1)c1ccccc1
Result block: 4.69

Query block: Supply measured pIC50 of CCOC(=O)C1(c2ccccc2)CCN(CC(=O)c2ccccc2)CC1 in your reply.
Result block: 4.25

Query block: Supply recorded pIC50 for Cc1c2ccccc2nc(CSc2ccccc2)[n+]1[O-] here.
Result block: 3.75

Query block: Recall and state the measured pIC50 for O=C(O)C(=Cc1ccc([N+](=O)[O-])cc1)C(=O)O .
Result block: 3.26

* * *

tested on: CEM cells HIV-1 protection, formazan growth assay; experiment: NCI AIDS Antiviral Assay; conditions: measured here: growth of uninfected CEM cells
Give pIC50 for every item shown.
By convention, pIC50 is the negative base-10 log of a molar concentration.

Query block: Name the recorded pIC50 of the item CC(=O)NC(CCCN(Cc1ccccc1)C(=O)N(CCCl)N=O)C(=O)NCc1ccccc1 (stereo not given) in your answer.
Result block: 4.34

Query block: Using known records, supply pIC50 for O=C(NC1CCN(Cc2ccccc2)CC1)c1cccc(I)c1
Result block: 4.47

Query block: Indicate its recorded pIC50; the molecule in question is Clc1ccc(C(OCn2ccnc2)c2nc3ccccc3[nH]2)c(Cl)c1 (stereo not given)
Result block: 3.97

Query block: Specify pIC50 for CC(=O)Nc1ccc(/C=C2/SC(=S)N(/C=C(\c3ccccc3)S(=O)Cc3ccccc3)C2=O)cc1 (stereo not given) and stop.
Result block: 4.05
